# MEASUREMENT PROTOCOL: Antibacterial activity against Acinetobacter calcoaceticus/baumannii complex isolate C1AC9-24 expressing KPC beta lactamase
# Assay type: functional
METRIC NAME: MIC (µg/mL)

- CN(C)c1ccc(O)c2c1C[C@H]1C[C@H]3[C@H](N(C)C)C(O)=C(C(N)=O)C(=O)[C@@]3(O)C(O)=C1C2=O [MINOCYCLINE]: 8
- C[C@@H](O)[C@H]1C(=O)N2C(C(=O)O)=C(SCCNC=N)C[C@H]12 [IMIPENEM ANHYDROUS]: 4
- C[C@@H](O)[C@H]1C(=O)N2C(C(=O)O)=C(S[C@@H]3CN[C@H](C(=O)N(C)C)C3)[C@H](C)[C@H]12 [MEROPENEM]: 4
- CN(C)c1cc(NC(=O)CNC(C)(C)C)c(O)c2c1C[C@H]1C[C@H]3[C@H](N(C)C)C(O)=C(C(N)=O)C(=O)[C@@]3(O)C(O)=C1C2=O [TIGECYCLINE]: 1
